The origin of these recorded values is PubChem BioAssay AID2060611.

System: 628569-122-R-J1-PDC complex spheroid viability;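 note: spheroids exposed to agents for seven days before readout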
Test: Anticancer human tumor 628569-122-R-J1-PDC patient-derived head and neck squamous carcinoma cell line growth inhibition [CLK]; active = viability on the fitted dose curve at most 10% of control; inactive = the rest
Details: second compound 0.0316 µM; first compound 1 µM
Classes used: t = active, f = inactive

>  <compound>
COc1c(OCCCN2CCOCC2)ccc2c3n(c(=NC(=O)c4cnc(N)nc4)nc12)CCN3 + CN1CCN(c2cc(C(=O)Nc3cc4cc(-c5cnn(C)c5)ccc4cn3)ccn2)CC1

>  <group_label>
t

$$$$
>  <compound>
COc1ccc([C@@H](O)c2cc(-c3ncnc4cc(N5CCOCC5)ccc34)c(F)cc2Cl)nn1 + CNC(=O)c1ccc(Nc2nc(OC3CCCC3)c3c(-c4ccc5nc(C)oc5c4)c[nH]c3n2)c(OC)c1

>  <group_label>
f

$$$$
>  <compound>
CC1(C)CCC(CN2CCN(c3ccc(C(=O)NS(=O)(=O)c4ccc(NCC5CCOCC5)c([N+](=O)[O-])c4)c(Oc4cnc5[nH]ccc5c4)c3)CC2)=C(c2ccc(Cl)cc2)C1 + CN1CCN(c2cc(C(=O)Nc3cc4cc(-c5cnn(C)c5)ccc4cn3)ccn2)CC1

>  <group_label>
f

$$$$
>  <compound>
Nc1ccccc1NC(=O)c1ccc(CNC(=O)OCc2cccnc2)cc1 + CNC(=O)c1ccc(Nc2nc(OC3CCCC3)c3c(-c4ccc5nc(C)oc5c4)c[nH]c3n2)c(OC)c1

>  <group_label>
f

$$$$
>  <compound>
CCc1c2c(nc3ccc(O)cc13)-c1cc3c(c(=O)n1C2)COC(=O)[C@]3(O)CC + CNC(=O)c1ccc(Nc2nc(OC3CCCC3)c3c(-c4ccc5nc(C)oc5c4)c[nH]c3n2)c(OC)c1

>  <group_label>
f

$$$$
>  <compound>
COC1C=CCC(C)C(C)S(=O)(=O)NC(=O)c2ccc3c(c2)N(CC2CCC21)CC1(CCCc2cc(Cl)ccc21)CO3 (stereo not given) + CN1CCN(c2cc(C(=O)Nc3cc4cc(-c5cnn(C)c5)ccc4cn3)ccn2)CC1

>  <group_label>
f

$$$$
>  <compound>
CC(Nc1ccc2c(c1)OCCn1cc(N3C(=O)OCC3C(F)F)nc1-2)C(N)=O (stereo not given) + CN1CCN(c2cc(C(=O)Nc3cc4cc(-c5cnn(C)c5)ccc4cn3)ccn2)CC1

>  <group_label>
f

$$$$
>  <compound>
O=C(c1cc(Cc2n[nH]c(=O)c3ccccc23)ccc1F)N1CCN(C(=O)C2CC2)CC1 + CN1CCN(c2cc(C(=O)Nc3cc4cc(-c5cnn(C)c5)ccc4cn3)ccn2)CC1

>  <group_label>
f

$$$$
>  <compound>
CCc1c2c(nc3ccc(O)cc13)-c1cc3c(c(=O)n1C2)COC(=O)[C@]3(O)CC + CN1CCN(c2cc(C(=O)Nc3cc4cc(-c5cnn(C)c5)ccc4cn3)ccn2)CC1

>  <group_label>
t

$$$$
>  <compound>
CC(CO)NC(=O)c1cc(-c2ccc(Cl)cc2)nn(-c2cnn(C)c2)c1=O (stereo not given) + CNC(=O)c1ccc(Nc2nc(OC3CCCC3)c3c(-c4ccc5nc(C)oc5c4)c[nH]c3n2)c(OC)c1

>  <group_label>
f

$$$$
